Target: UniProt P46098
Sequence (whole entry): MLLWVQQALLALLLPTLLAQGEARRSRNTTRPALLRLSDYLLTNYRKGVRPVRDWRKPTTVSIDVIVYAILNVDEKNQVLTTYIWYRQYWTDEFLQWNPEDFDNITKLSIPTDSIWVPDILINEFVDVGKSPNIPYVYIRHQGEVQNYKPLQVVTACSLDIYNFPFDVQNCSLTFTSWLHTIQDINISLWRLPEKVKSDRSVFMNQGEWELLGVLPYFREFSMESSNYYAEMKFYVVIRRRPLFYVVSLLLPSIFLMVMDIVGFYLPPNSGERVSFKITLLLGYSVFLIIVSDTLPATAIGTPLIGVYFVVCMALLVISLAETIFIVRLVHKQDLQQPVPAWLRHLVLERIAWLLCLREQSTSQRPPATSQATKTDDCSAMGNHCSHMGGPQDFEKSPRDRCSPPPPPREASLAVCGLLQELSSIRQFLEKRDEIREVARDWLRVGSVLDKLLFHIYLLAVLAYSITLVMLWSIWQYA
Details: Compound concentration 10 µM
Description: PDSP Primary Binding target: HTR3A - Compounds are tested at 10 uM concentration, plate are incubated at room temperature in the dark for 90 minutes. Reaction are stopped by vacuum filtration onto 0.3% polyethyleneimine soaked filter mats using Filtermate harvester. Scintilation cocktail is then melted onto microwave-dried filters on a hot plate and the radio activity is counted in Microbia counter.
observation-type: inhibition

# compound-string, observation-type, result
data = [
    ("CC(C)(N)C(=O)N[C@H](COCc1ccccc1)C(=O)N1CCC2(CC1)CN(S(C)(=O)=O)c1ccccc12", "inhibition", "17.7%"),
    ("CCCCCNC(=O)NS(=O)(=O)c1cc([N+](=O)[O-])ccc1NC1CCCCC1", "inhibition", "-7.62%"),
    ("CCc1cc2c(cc1CC)CC(NC[C@H](O)c1ccc(O)c3[nH]c(=O)ccc13)C2", "inhibition", "-4.69%"),
]

q: What value of inhibition has been reported for the following molecule? C=CCN1C[C@H](C)N([C@H](c2ccc(C(=O)N(CC)CC)cc2)c2cccc(O)c2)C[C@H]1C
a: 10%

q: What value of inhibition has been reported for the following molecule? N=C(N)SCCc1c[nH]cn1
a: 45.7%

q: What value of inhibition has been reported for the following molecule? COc1ccc2[nH]cc(CCNC(C)=O)c2c1
a: -3.39%

q: What value of inhibition has been reported for the following molecule? CN1CC(=O)N=C1NC(=O)Nc1cccc(Cl)c1
a: -5.43%

====

Target: 5-hydroxytryptamine receptor 3A (Homo sapiens) (UniProt P46098)
Conditions: Compound concentration 10 µM
observation-type: inhibition (%)
// note: answer is a bare numeric in %

Sample answers from the record:
# compound, assay-target, observation-type, readout-number
rows = [
    ("CC(C)NCC(O)COc1ccc(CCOCC2CC2)cc1 (stereo not drawn)", "5-hydroxytryptamine receptor 3A (Homo sapiens) (UniProt P46098)", "inhibition", -0.24),
    ("CC(C)NCC(O)COc1cccc2[nH]ccc12 (stereo not drawn)", "5-hydroxytryptamine receptor 3A (Homo sapiens) (UniProt P46098)", "inhibition", -0.98),
    ("CN1CCC(=C2c3ccccc3CC(=O)c3sccc32)CC1", "5-hydroxytryptamine receptor 3A (Homo sapiens) (UniProt P46098)", "inhibition", 84.5),
]

q: What value of inhibition has been reported for the following compound? CN1C(=O)[C@@H](NC(=O)c2cc3ccccc3[nH]2)N=C(c2ccccc2)c2ccccc21
a: 2.09

q: What value of inhibition has been reported for the following compound? Cc1nc(C#Cc2ccnc(Cl)c2)c(C)n1-c1ccc(OC(F)(F)F)cc1
a: -5.17
